- Test system: HOP-18 NSCLC
- test description: NCI tumour cell line growth inhibition, 48 h
readout: TGI

{"compound": "CCN(CC)CCn1[nH]c2c3ccc(=O)cc3sc3c(NCCN)ccc1c32", "measured value": "13.6 µM"}
{"compound": "COc1cc(C2c3cc4c(cc3[C@@H](Oc3ccc(F)cc3)C3COC(=O)[C@H]23)OCO4)cc(OC)c1O (some centres undefined)", "measured value": "> 100 µM"}
{"compound": "COC(=O)/C=c1\\s/c(=C\\C(=O)OC)c2ccccc12", "measured value": "> 100 µM"}
{"compound": "O=C1C2C3C=C4c5ccccc5N(c5ccccc5)C4(C2C(=O)N1c1ccc(Br)cc1)[C@H]1C(=O)N(c2ccc(Br)cc2)C(=O)[C@@H]31 (some centres undefined)", "measured value": "> 100 µM"}
